Values from patent US20210301025A1

testTarget: EGFR (form used in the assay not stated) (human, UniProt P00533 25-645, limits assumed)
assayDetails: ELISA, NEM conjugate, 100 nM
observable: binding relative to P54AR4-83v2 parent (ratio)

INSERT INTO measurements (binder, reportedmeasurement) VALUES
  ('P54AR4-83v2 G64C, NEM conjugate (designed binder, not shown: small tags and cut ends, N-ethyl maleimide (NEM) on Cys 64) LPAPKNLVVSEVTEDSARLSWDDPWAFYESFLIQYQESEKVGEAIVLTVPGSERSYDLTGLKPCTEYTVSIYGVHNVYKDTNMRGLPLSAIFTT', 1.42),
  ('P54AR4-83v2 L86C, NEM conjugate (designed binder, not shown: small tags and cut ends, N-ethyl maleimide (NEM) on Cys 86) LPAPKNLVVSEVTEDSARLSWDDPWAFYESFLIQYQESEKVGEAIVLTVPGSERSYDLTGLKPGTEYTVSIYGVHNVYKDTNMRGCPLSAIFTT', 0.96),
  ('P54AR4-83v2 T81C, NEM conjugate (designed binder, not shown: small tags and cut ends, N-ethyl maleimide (NEM) on Cys 81) LPAPKNLVVSEVTEDSARLSWDDPWAFYESFLIQYQESEKVGEAIVLTVPGSERSYDLTGLKPGTEYTVSIYGVHNVYKDCNMRGLPLSAIFTT', 0.9),
  ('P54AR4-83v2 S20C, NEM conjugate (designed binder, not shown: small tags and cut ends, N-ethyl maleimide (NEM) on Cys 20, also called 520C) LPAPKNLVVSEVTEDSARLCWDDPWAFYESFLIQYQESEKVGEAIVLTVPGSERSYDLTGLKPGTEYTVSIYGVHNVYKDTNMRGLPLSAIFTT', 1.05),
  ('P54AR4-83v2 N82C, NEM conjugate (designed binder, not shown: small tags and cut ends, N-ethyl maleimide (NEM) on Cys 82) LPAPKNLVVSEVTEDSARLSWDDPWAFYESFLIQYQESEKVGEAIVLTVPGSERSYDLTGLKPGTEYTVSIYGVHNVYKDTCMRGLPLSAIFTT', 0.97),
  ('P54AR4-83v2 E53C, NEM conjugate (designed binder, not shown: small tags and cut ends, N-ethyl maleimide (NEM) on Cys 53) LPAPKNLVVSEVTEDSARLSWDDPWAFYESFLIQYQESEKVGEAIVLTVPGSCRSYDLTGLKPGTEYTVSIYGVHNVYKDTNMRGLPLSAIFTT', 1.02),
  ('P54AR4-83v2 T13C, NEM conjugate (designed binder, not shown: small tags and cut ends, N-ethyl maleimide (NEM) on Cys 13) LPAPKNLVVSEVCEDSARLSWDDPWAFYESFLIQYQESEKVGEAIVLTVPGSERSYDLTGLKPGTEYTVSIYGVHNVYKDTNMRGLPLSAIFTT', 1.04),
  ('P54AR4-83v2 L32C, NEM conjugate (designed binder, not shown: small tags and cut ends, N-ethyl maleimide (NEM) on Cys 32) LPAPKNLVVSEVTEDSARLSWDDPWAFYESFCIQYQESEKVGEAIVLTVPGSERSYDLTGLKPGTEYTVSIYGVHNVYKDTNMRGLPLSAIFTT', 1.01),
  ('P54AR4-83v2 I91C, NEM conjugate (designed binder, not shown: small tags and cut ends, N-ethyl maleimide (NEM) on Cys 91) LPAPKNLVVSEVTEDSARLSWDDPWAFYESFLIQYQESEKVGEAIVLTVPGSERSYDLTGLKPGTEYTVSIYGVHNVYKDTNMRGLPLSACFTT', 1.01);
